Target: mTOR (Homo sapiens, UniProt P42345)
Construct: FLAG; made in house
Sequence (P42345 1362-2549): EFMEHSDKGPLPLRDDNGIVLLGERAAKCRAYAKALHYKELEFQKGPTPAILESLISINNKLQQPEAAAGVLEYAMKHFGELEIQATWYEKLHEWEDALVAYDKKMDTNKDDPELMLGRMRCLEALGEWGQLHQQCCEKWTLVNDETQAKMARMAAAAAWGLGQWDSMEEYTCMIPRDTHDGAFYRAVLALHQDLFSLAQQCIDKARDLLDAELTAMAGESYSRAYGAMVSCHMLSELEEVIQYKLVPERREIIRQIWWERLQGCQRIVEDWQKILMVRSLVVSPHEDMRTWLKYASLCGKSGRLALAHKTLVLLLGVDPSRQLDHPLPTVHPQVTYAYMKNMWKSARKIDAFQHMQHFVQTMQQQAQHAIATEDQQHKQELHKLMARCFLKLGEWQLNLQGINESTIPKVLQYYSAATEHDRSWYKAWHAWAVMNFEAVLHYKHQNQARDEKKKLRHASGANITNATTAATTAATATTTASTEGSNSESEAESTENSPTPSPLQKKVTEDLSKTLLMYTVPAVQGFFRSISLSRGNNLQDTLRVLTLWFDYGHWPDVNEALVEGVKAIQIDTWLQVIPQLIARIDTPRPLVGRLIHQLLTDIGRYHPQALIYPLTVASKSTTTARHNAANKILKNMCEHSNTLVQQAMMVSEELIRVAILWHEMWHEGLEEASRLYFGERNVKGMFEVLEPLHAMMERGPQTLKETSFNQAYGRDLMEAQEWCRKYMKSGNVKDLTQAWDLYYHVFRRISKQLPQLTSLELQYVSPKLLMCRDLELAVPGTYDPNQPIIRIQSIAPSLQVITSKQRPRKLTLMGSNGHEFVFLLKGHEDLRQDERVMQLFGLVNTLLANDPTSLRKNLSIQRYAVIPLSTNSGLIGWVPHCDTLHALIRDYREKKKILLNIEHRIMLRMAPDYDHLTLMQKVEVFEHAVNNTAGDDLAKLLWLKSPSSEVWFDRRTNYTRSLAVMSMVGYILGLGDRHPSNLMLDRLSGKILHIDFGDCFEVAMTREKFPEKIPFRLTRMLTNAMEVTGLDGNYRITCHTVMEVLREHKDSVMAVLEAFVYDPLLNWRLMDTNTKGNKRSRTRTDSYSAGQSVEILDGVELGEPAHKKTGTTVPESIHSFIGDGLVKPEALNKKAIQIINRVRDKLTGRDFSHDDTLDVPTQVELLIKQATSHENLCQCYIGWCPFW
Assay: In Vitro mTOR Kinase Assay (Echo), Test (a)(ii)
Assay type: biochemical
Details: read-out: mTOR Kinase Assay (Echo)
Excerpt: (a)(ii) In Vitro mTOR Kinase Assay (Echo) The assay used AlphaScreen technology (Gray et al., Analytical Biochemistry, 2003, 313: 234-245) to determine the ability of test compounds to inhibit phosphorylation by recombinant mTOR. A C-terminal truncation of mTOR encompassing amino acid residues 1362 to 2549 of mTOR (EMBL Accession No. L34075) was stably expressed as a FLAG-tagged fusion in HEK293 cells as described by Vilella-Bach et al., Journal of Biochemistry, 1999, 274, 4266-4272. […]
pIC50: −log10 of the molar value.
Outcome measure: pIC50

The following compounds have reported results that may help.
CS(=O)(=O)C1(c2cc(N3CCOCC3)nc(-c3ccc(NC(=O)NCCO)cc3)n2)CCCC1 [Example 12l] : 8.86
CNC(=O)Nc1ccc(-c2nc(N3CCOC[C@@H]3C)cc(C3(S(C)(=O)=O)CCC3)n2)cc1 : 9.10
CC(C)NC(=O)Nc1ccc(-c2nc(N3CCOC[C@@H]3C)cc(C3(S(=O)(=O)c4ccncc4)CC3)n2)cc1 : 8.49
C[C@H]1COCCN1c1cc(C2(S(=O)(=O)C3CC3)CC2)nc(-c2ccc(NC(=O)Nc3ccn(C)n3)cc2)n1 : 9.22
CCCNC(=O)Nc1ccc(-c2nc(N3CCOC[C@@H]3C)cc(C3(S(=O)(=O)C4CCCC4)CC3)n2)cc1 : 8.24
C[C@H]1COCCN1c1cc(C2(S(C)(=O)=O)CC2)nc(-c2ccc(NC(=O)NCC(C)(C)O)cc2)n1 : 7.56
C[C@H]1COCCN1c1cc(C2(S(=O)(=O)c3ccccc3C(F)(F)F)CC2)nc(-c2ccc(NC(=O)NC3CC3)cc2)n1 : 8.35
CCNC(=O)Nc1ccc(-c2nc(N3CCOC[C@@H]3C)cc(C3(S(=O)(=O)c4ccncc4)CC3)n2)cc1 : 9.06

[1] CCS(=O)(=O)C1(c2cc(N3CCOC[C@@H]3C)nc(-c3ccc(NC(=O)Nc4ccc(C(F)(F)F)cc4)cc3)n2)CC1 [Example 11k]
[2] C[C@H]1COCCN1c1cc(C2(S(=O)(=O)c3ccc(F)cc3)CC2)nc(-c2ccc(NC(=O)NC(C)(C)CO)cc2)n1
[3] CCS(=O)(=O)C1(c2cc(N3CCOC[C@@H]3C)nc(-c3ccc(NC(=O)NCCO)cc3)n2)CC1 [Example 11e]
Given 3 compounds, produce a descending ranking by pIC50. Answer by naming the labels in the order asked.
3, 1, 2
(3: 8.87, 1: 8.48, 2: 8.05)

[P] CC(C)S(=O)(=O)C1(c2cc(N3CCOC[C@@H]3C)nc(-c3ccc(NC(=O)Nc4ccccn4)cc3)n2)CC1
[Q] C[C@H]1COCCN1c1cc(C2(S(=O)(=O)c3ccccc3C(F)(F)F)CC2)nc(-c2ccc(NC(=O)Nc3ccccn3)cc2)n1 [Example 10b]
Hey, which is lower on measured pIC50, P or Q ? To answer, give the label that identifies your chosen option.
Q
(Q: 7.58, P: 8.04)

----------
target: mTOR (Homo sapiens, UniProt P42345); construct: FLAG; made in house; test: In Vitro mTOR Kinase Assay (Echo), Test (a)(ii); type: biochemical; settings: table of enzyme assay Test (a)(ii); read-out: Test (a)(ii) IC50
Outcome measure: IC50 (nM)

The following molecules have reported results that may help.
C[C@H]1COCCN1c1cc(C2(S(=O)(=O)c3c(F)cccc3F)CC2)nc(-c2ccc(NC(=O)NCCO)cc2)n1 [Example 86c] : 2.47
C[C@H]1COCCN1c1cc(C2(S(=O)(=O)c3ccc(F)c(F)c3)CC2)nc(-c2ccc(NC(=O)Nc3cnn(C)c3)cc2)n1 [Example 64k] : 1.44
Cc1ccc(F)cc1S(=O)(=O)C1(c2cc(N3CCOC[C@@H]3C)nc(-c3ccc(NC(=O)Nc4cnn(C)c4)cc3)n2)CC1 [Example 61f] : 32.8
CNC(=O)Nc1ccc(-c2nc(N3CCOC[C@@H]3C)cc(C3(S(=O)(=O)c4ccc(Cl)cc4)CC3)n2)cc1 [Example 27e] : 0.351
C[C@H]1COCCN1c1cc(C2(S(=O)(=O)C3CC3)CCOCC2)nc(-c2ccc(NC(=O)Nc3cnn(C)c3)cc2)n1 [Example 23i] : 25.4
CCNC(=O)Nc1ccc(-c2nc(N3CCOC[C@@H]3C)cc(C3(S(=O)(=O)c4ccc(F)c(F)c4)CC3)n2)cc1 [Example 64h] : 1.48
CNC(=O)Nc1ccc(-c2nc(N3CCOC[C@@H]3C)cc(C3(S(=O)(=O)c4cn(C)nc4C)CC3)n2)cc1 : 2.96
C[C@H]1COCCN1c1cc(C2(S(=O)(=O)C3CCCCC3)CC2)nc(-c2ccc(NC(=O)NCCCO)cc2)n1 [Example 26g] : 7.46

[1] C[C@H]1COCCN1c1cc(C2(S(=O)(=O)c3ccc(F)cc3)CC2)nc(-c2ccc(NC(=O)Nc3ncns3)cc2)n1 [Example 36z]
[2] CNC(=O)Nc1ccc(-c2nc(N3CCOC[C@@H]3C)cc(C3(S(=O)(=O)CCO)CC3)n2)cc1
[3] C[C@H]1COCCN1c1cc(C2(S(=O)(=O)CCCO)CC2)nc(-c2ccc(NC(=S)Nc3cnn(C)c3)cc2)n1 [Example 37j]
[4] Cc1nc(C)c(S(=O)(=O)C2(c3cc(N4CCOC[C@@H]4C)nc(-c4ccc(NC(=O)NCC(F)F)cc4)n3)CC2)s1 [Example 78d]
Given 4 molecules, produce a descending ranking by IC50. Answer by naming the labels in the order asked.
3, 4, 1, 2

These measurements were taken from patent US20090018134A1.
